- Tested system: ROR1 (antigen of the KD determination and of the Octet dissociation measurement) (UniProt Q01973 30-403, limits assumed)
- Sequence (Q01973 30-403 limits assumed): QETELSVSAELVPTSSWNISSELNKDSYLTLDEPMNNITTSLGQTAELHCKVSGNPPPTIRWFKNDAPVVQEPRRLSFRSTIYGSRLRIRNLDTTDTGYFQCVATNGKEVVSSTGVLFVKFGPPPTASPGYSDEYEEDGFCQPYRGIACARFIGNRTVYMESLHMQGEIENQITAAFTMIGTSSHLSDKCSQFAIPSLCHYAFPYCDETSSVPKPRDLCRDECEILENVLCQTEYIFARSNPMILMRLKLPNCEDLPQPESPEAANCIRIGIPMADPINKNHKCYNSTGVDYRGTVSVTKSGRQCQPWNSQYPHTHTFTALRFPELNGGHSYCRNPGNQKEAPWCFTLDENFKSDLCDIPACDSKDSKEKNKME
- Measurement protocol: Octet, antigen form not stated
Response listing for selected binders.
The reply should be a number, written without any unit.

[
  {
    "Binder": "PR002568 (antibody, human IgG1, kappa, V domains shown, PR001354 variant: VH G55A, VL N92Q; hIgG1; also called anti-ROR1 1015M2-C9(H: G55A; L: N92Q) hIgG1) VH: QVQLVQSGGGVVQPGRSLRLSCAASGFTFSSYGMHWVRQAPGKGLEWVAIMWYDASDKDYADSVKGRFTISRDTSKNTLYLQMNSLRAEDTAVYYCAREQARSFDLWGRGTLVTVSS VL: DIVMTQSPSSLSASVGDRVTITCRASQTINNWLAWYQQKPGKAPKLLIYKASSLESGVPSRFSGSGSGTEFTLTISSLQPDDFATYYCQQYQSYSPMYTFGQGTKVEIKR",
    "Response": 0.702
  },
  {
    "Binder": "PR001354 (antibody, human IgG1, kappa, V domains shown, fully human IgG1, kappa; also called anti-ROR1 1015M2-C9 hIgG1; PR001354(WT)) VH: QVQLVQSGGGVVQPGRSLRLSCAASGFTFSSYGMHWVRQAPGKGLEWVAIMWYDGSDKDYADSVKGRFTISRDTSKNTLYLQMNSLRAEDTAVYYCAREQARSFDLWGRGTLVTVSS VL: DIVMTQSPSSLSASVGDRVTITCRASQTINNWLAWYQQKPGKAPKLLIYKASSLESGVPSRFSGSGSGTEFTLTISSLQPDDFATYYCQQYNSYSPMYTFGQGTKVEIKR",
    "Response": 0.609
  }
]

Turning now to a further binder:
For reference, reported Response for PR001364 (antibody, human IgG1, kappa, V domains shown, fully human IgG1, kappa; also called anti-ROR1 1015M3-D8 hIgG1; PR001364(WT)) VH: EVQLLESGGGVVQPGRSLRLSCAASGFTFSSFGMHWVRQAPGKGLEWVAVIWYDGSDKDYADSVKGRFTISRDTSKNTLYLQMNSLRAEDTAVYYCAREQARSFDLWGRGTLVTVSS VL: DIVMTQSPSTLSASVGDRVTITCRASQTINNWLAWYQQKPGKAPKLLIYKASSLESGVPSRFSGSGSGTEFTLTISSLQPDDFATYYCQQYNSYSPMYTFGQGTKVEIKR stands at 0.601
